Cited source: patent US7906310B2

Parameter: Enzyme Activity, Control (no Cu^2+). Scope: all listed entries.
ASSAY NAME: pNA assay: protease activity with 1 mM Cu2+ relative to control without Cu2+
Format: biochemical
STUDY CONDITIONS: no Cu2+; enzyme 1 mg/l; Suc-AAPF-pNA; pH 7, 25° C.
Expressed in mOD405/min, but write only the number.

[
  {
    "MOLECULE": "Protease 10: known protease derived from Nocardiopsis sp. NRRL 18262, amino acids 1-188 of SEQ ID NO: 2 (protein) ADIIGGLAYTMGGRCSVGFAATNAAGQPGFVTAGHCGRVGTQVTIGNGRGVFEQSVFPGNDAAFVRGTSNFTLTNLVSRYNTGGYATVAGHNQAPIGSSVCRSGSTTGWHCGTIQARGQSVSYPEGTVTNMTRTTVCAEPGDSGGSYISGTQAQGVTSGGSGNCRTGGTTFYQEVTPMVNSWGVRLRT",
    "Enzyme Activity, Control (no Cu^2+), mOD405/min": 122.2
  },
  {
    "MOLECULE": "Protease 11: protease from Nocardiopsis prasina DSM 15648, amino acids 1-188 of SEQ ID NO: 6 (protein, listed as Nocardiopsis prasina) ATGPLPQSPTPEADAVSMQEALQRDLGLTPLEADELLAAQDTAFEVDEAAAAAAGDAYGGSVFDTETLELTVLVTDAASVEAVEATGAGTELVSYGIEGLDEIIQDLNAADAVPGVVGWYPDVAGDTVVLEVLEGSGADVSGLLADAGVDASAVEVTSSAQPELYADIIGGLAYTMGGRCSVGFAATN",
    "Enzyme Activity, Control (no Cu^2+), mOD405/min": 133.6
  },
  {
    "MOLECULE": "Protease 08: protease from Nocardiopsis alba DSM 15647, amino acids 1-188 of SEQ ID NO: 10 (protein, listed as Nocardiopsis alba) ATGPLPQSPTPDEAEATTMVEALQRDLGLSPSQADELLEAQAESFEIDEAATAAAADSYGGSIFDTDSLTLTVLVTDASAVEAVEAAGAEAKVVSHGMEGLEEIVADLNAADAQPGVVGWYPDIHSDTVVLEVLEGSGADVDSLLADAGVDTADVKVESTTEQPELYADIIGGLAYTMGGRCSVGFAA",
    "Enzyme Activity, Control (no Cu^2+), mOD405/min": 216.0
  },
  {
    "MOLECULE": "Protease 35: protease from Nocardiopsis prasina DSM 15649, amino acids 1-188 of SEQ ID NO: 8 (protein, listed as Nocardiopsis prasina) ATGPLPQSPTPEADAVSMQEALQRDLGLTPLEADELLAAQDTAFEVDEAAAEAAGDAYGGSVFDTETLELTVLVTDSAAVEAVEATGAGTELVSYGITGLDEIVEELNAADAVPGVVGWYPDVAGDTVVLEVLEGSGADVGGLLADAGVDASAVEVTTTEQPELYADIIGGLAYTMGGRCSVGFAATN",
    "Enzyme Activity, Control (no Cu^2+), mOD405/min": 109.2
  }
]

The molecule listed as Metarhizium protease: known protease derived from Metarhizium anisopliae, amino acids 1-188 of SEQ ID NO: 4 (protein, listed as Metarhizium anisopliae) MELTKFLALLAVILPVAYGAPTQAASLHPQILEAMKRDLGLNAEQATVRVAREIHATDVIEQLRSSVAFAGAWIDADVLYIGITDQALADEVTAAGATPIVMTNSLSKLEKAKEDLDKIFIGRANTLETSSDTSSGIASYFVDVAANKLVIEALADSHGHAEQLAAQVGLTSEFEVRTVETMPTTMAT has a reported Enzyme Activity, Control (no Cu^2+) of 118.2

Sure, the documented Enzyme Activity, Control (no Cu^2+) for Protease 18: protease from Nocardiopsis dassonvillei subsp. dassonvillei DSM 43235, amino acids 1-188 of SEQ ID NO: 12 (protein, Nocardiopsis dassonvillei subspecies dassonvillei) APAPVPQTPVADDSAASMTEALKRDLDLTSAEAEELLSAQEAAIETDAEATEAAGEAYGGSLFDTETLELTVLVTDASAVEAVEATGAQATVVSHGTEGLTEVVEDLNGAEVPESVLGWYPDVESDTVVVEVLEGSDADVAALLADAGVDSSSVRVEEAEEAPQVYADIIGGLAYYMGGRCSVGFAAT is 193.1

Quick note, Enzyme Activity, Control (no Cu^2+) for Brachysporiella protease: protease from Brachysporiella gayana CGMCC 0865, amino acids 1-186 of SEQ ID NO: 14 (protein, listed as Brachysporiella gayana) MELTSLIAALAVILPIAYGVPMDATTNLSPKVLAAMKRDLGLDAREATARVTFERRAGDVIEELRSSLGDSFAGAWVTDGKVINIGVTDQALVSKVKEAGAEPMVMKNSLGKLQEAKKKLDQIIKEKPKTLSTSGKPGIATYYVDIETNKLIITALSTSITQAEDLAKEVGLSESEFEVRKTEKMP landed at 72.6
